- systemName: T1, FLAG-tagged cynomolgus Ang2 (cynomolgus, UniProt O15123 19-496 (human entry), limits assumed)
- T1 construct: N-terminally FLAG-tagged, conditioned medium of HEK293T cells; also called cAng2; FLAG-cAng2
- T1 chain: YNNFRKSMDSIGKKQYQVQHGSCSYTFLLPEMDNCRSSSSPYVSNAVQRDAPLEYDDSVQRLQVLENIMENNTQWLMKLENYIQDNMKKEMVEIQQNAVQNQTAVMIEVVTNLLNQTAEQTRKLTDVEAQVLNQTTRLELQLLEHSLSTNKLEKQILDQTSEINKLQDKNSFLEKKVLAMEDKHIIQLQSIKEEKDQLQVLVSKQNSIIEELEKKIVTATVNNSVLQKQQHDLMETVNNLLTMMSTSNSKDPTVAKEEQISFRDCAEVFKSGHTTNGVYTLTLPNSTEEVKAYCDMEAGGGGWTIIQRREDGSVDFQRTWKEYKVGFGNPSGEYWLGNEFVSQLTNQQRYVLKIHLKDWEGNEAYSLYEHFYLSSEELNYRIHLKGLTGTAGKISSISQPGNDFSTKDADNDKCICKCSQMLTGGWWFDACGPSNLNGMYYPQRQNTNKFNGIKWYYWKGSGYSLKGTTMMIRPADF
- testName: competition ELISA: FLAG-cAng2 binding to coated cTie2-Fc
- Description: In brief, 2 μg/mL of recombinant mouse Tie2-Fc or cyno Tie2-Fc is coated overnight at 4° C. in a 96-well MaxiSorp plate (Nunc, Wiesbaden, Germany). Coated wells are blocked with a 1% casein solution.
Listing of entries alongside the reported IC50.
Number only, in nM; omit the unit.

Below are worked cases with known answers.
binder="VHH 00935 (VHH, not shown: small tags and cut ends, Cycle 3 variant of 28D10 on the 00908 backbone) VHH: EVQLVESGGGLVQPGGSLRLSCAASGITLDDYAIGWFRQAPGKEREGVSAIRSSGGSTYYADSVKGRFTISSDNSKNTVYLQMNSLRPEDTAVYYCAAVPAGRLRYGEQWYPIYEYDAWGQGTLVTVSS" recordedmeasurement=0.069
binder="VHH 00936 (VHH, not shown: small tags and cut ends, Cycle 3 variant of 28D10 on the 00908 backbone) VHH: EVQLVESGGGLVQPGGSLRLSCAVSGITLDDYAIGWFRQAPGKEREGVSAIRDNGGSTYYADSVKGRFTISSDNSKNTVYLQMNSLRPEDTAVYYCAAVPAGRLRYGEQWYPIYEYDAWGQGTLVTVSS" recordedmeasurement=0.06
binder="VHH 00934 (VHH, not shown: small tags and cut ends, Cycle 3 variant of 28D10 on the 00908 backbone) VHH: EVQLVESGGGLVQPGGSLRLSCAASGITLDDYAIGWFRQAPGKEREGVSAIRESGGSTYYADSVKGRFTISSDNSKNTVYLQMNSLRPEDTAVYYCAAVPAGRLRYGEQWYPIYEYDAWGQGTLVTVSS" recordedmeasurement=0.071

Attention now turns to another entry.
Prompt: Let me know recorded IC50 for VHH 00908 (VHH, not shown: small tags and cut ends) VHH: EVQLVESGGGLVQPGGSLRLSCAASGITLDDYAIGWFRQAPGKEREGVSSIRDNGGSTYYADSVKGRFTISSDNSKNTVYLQMNSLRPEDTAVYYCAAVPAGRLRYGEQWYPIYEYDAWGQGTLVTVSS , thanks.
Response: 0.079

Values from patent US20230203146A1
